Every entry's value here was drawn from PubChem BioAssay (NCI).

System: SNB-78 CNS
Test: NCI tumour cell line growth inhibition, 48 h
quantityKind: TGI

| compound | quantityKind | endpointValue |
| --- | --- | --- |
| COc1cc(/C=C(\C#N)C(=O)c2ccccc2)ccc1OCc1ccccc1 | TGI | > 100 µM |
| CC1C[C@@]2(c3ccccc3)C(=O)CCC[C@H]2N1 (stereo not given in full) | TGI | > 100 µM |
| Cc1[nH]c2ccccc2c1C1Cc2ccccc2N1C(=O)/C=C\C(=O)O (stereo not given) | TGI | > 100 µM |
| CCNC(=O)CCN(C(=O)O)S(=O)(=O)c1ccc(NC(=O)c2ccccc2)cc1 | TGI | > 100 µM |

Name the reported TGI value associated with the compound CCN(CC)CC(O)CNc1ccc(NCC2CO2)c2c1C(=O)c1ccccc1C2=O (stereo not given)
2.6 µM

* * *

Give TGI for every item shown.
System: 786-0 renal
Experiment: NCI tumour cell line growth inhibition, 48 h

| molecule | TGI |
| --- | --- |
| CC(=O)C(=[N+]=[N-])C(=O)NCC#N | > 10 µM |
| c1ccc2c(c1)CCC/C2=N\OCC1CO1 (stereo not given) | > 100 µM |

I would be grateful if you could provide TGI for each of the following entries.
1. CCC(Sc1cc(Cl)c(C)cc1S(=O)(=O)Nc1nc(N)nc(N(C)C)n1)C(=O)O (stereo not given)
2. CCOC(=O)Nc1nc2ccc(Cn3cccc3)cc2[nH]1
3. COC(=O)C1=C(O)C(C(=O)OC)[C@]2(O)[C@H](C(=O)OC)[C@H]1C[C@@H](c1ccc(F)cc1)[C@H]2C(=O)OC (stereo not given in full)

["> 10 µM", "> 100 µM", "32 µM"]

* * *

Give TGI for every item shown.
Tested on: K-562 leukemia
Assay: NCI tumour cell line growth inhibition, 48 h

Example results:
| compound | quantityKind | endpointValue |
| --- | --- | --- |
| COC(=O)Nc1nc2ccc(S(=O)(=O)NC(CC(C)C)C(=O)OC)cc2[nH]1 (configuration not stated) | TGI | > 100 µM |
| COc1ccc(Nc2nnc(CCCCCCCCc3nnc(Nc4ccc(OC)cc4)o3)o2)cc1 | TGI | > 100 µM |
| COc1ccccc1N1C(=O)/C(=C/c2ccc(N(CCC#N)CCC#N)cc2C)N=C1c1cc([N+](=O)[O-])ccc1Cl | TGI | > 100 µM |
| C=C1C(=O)C23CC1C[C@H](OC(C)=O)[C@H]2C1(C)C(OC(C)=O)C[C@H](O)C(C)(C)[C@H]1C(=O)[C@@H]3OC(C)=O (some centres not stated) | TGI | > 21 µM |
| COc1ccc2nc3c([N+](=O)[O-])ccc4c3c(c2c1)N=CN4CCCN(C)C | TGI | 2.19 µM |

I would be grateful if you could provide TGI for each of the following entries.
1. CN(C)c1ccc(/C=N\NC(=O)c2ccccc2Nc2ccccc2C(=O)N/N=C/c2ccc(N(C)C)cc2)cc1
2. Cc1[nH]c2ccccc2c1C1Cc2ccccc2N1C(=O)/C=C\C(=O)O (configuration not stated)

> 100 µM
> 100 µM

* * *

System: SK-OV-3 ovarian
Experiment: NCI tumour cell line growth inhibition, 48 h; in the data active means GI50 below about 0.43 µM; inactive means the rest
// one of y (active), n (inactive), no free text

Record excerpt, results attached:
| compound | category |
| --- | --- |
| CCN(CC)CCCC(C)Nc1c2ccc(Cl)cc2nc2ccc(OC)cc12 (centres undefined) | n |
| CC[C@H](NC(=O)[C@H](C)NC)C(=O)N1C[C@@H](O)C[C@H]1Cc1c(-c2[nH]c3cc(F)ccc3c2C[C@@H]2C[C@H](O)CN2C(=O)[C@H](CC)NC(=O)[C@H](C)NC)[nH]c2cc(F)ccc12 | y |
| O=S(=O)(NC1=NCCN1C(=S)SN1CCn2c1nsc2=S)c1ccc(Br)cc1 | n |

Proceed to the following item.
Record lookup: outcome of this test for `COc1ccc(CN(C)c2ccc(CO)c(Cl)c2)cc1` ?
n

* * *

Tested on: SK-MEL-5 melanoma
Experiment: NCI tumour cell line growth inhibition, 48 h
quantityKind: GI50

| compound | experimentalSystem | quantityKind | endpointValue |
| --- | --- | --- | --- |
| CCOC(=O)C(N)C[S][Sn]([CH3])([CH3])[Cl] (stereo not given) | SK-MEL-5 melanoma | GI50 | > 100000 nM |

I would be grateful if you could provide GI50 for each of the following entries.
1. CN[C@@H](C)C(=O)N[C@H](C(=O)N1CCC[C@H]1C(=O)N[C@H]1c2ccccc2C[C@H]1OCC#CC#CCO[C@@H]1Cc2ccccc2[C@@H]1NC(=O)[C@@H]1CCCN1C(=O)[C@@H](NC(=O)[C@H](C)NC)C1CCCCC1)C1CCCCC1
2. O=C(/C=C/c1ccc(F)cc1)c1ccc(Cl)cc1Cl
3. CC(=O)c1c(C)[nH]c(-c2nc3ccc(N4CCN(C)CC4)cc3[nH]2)c1-c1ccc(OCC2CCOCC2)cc1
4. Cn1c([N+](=O)[O-])cnc1/C=C1\Oc2ccccc2C1=O
5. O=C(O[C@H]1CN[C@H](C#Cc2cc3ncnc(Nc4ccc5c(ccn5Cc5cc(F)ccc5F)c4)c3s2)C1)N1CCOCC1
6. O=S(=O)(NC1=NCCN1C(=S)SN1CCn2c1nsc2=S)c1ccc(Br)cc1
7. CCN(CC)CC(O)CNc1ccc(NCC2CO2)c2c1C(=O)c1ccccc1C2=O (stereo not given)
8. O=[N+]([O-])c1cc(Cl)c(Cl)c([N+](=O)[O-])c1Cl

1: 2370 nM; 2: 50800 nM; 3: 966 nM; 4: 234 nM; 5: 2950 nM; 6: 19500 nM; 7: 398 nM; 8: 1730 nM

Name the reported GI50 value associated with the compound `Cc1cc(I)cc(CN(C)CCCN2CCSCC2)c1O`
16400 nM

* * *

System: A498 renal
Experiment: NCI tumour cell line growth inhibition, 48 h
quantityKind: GI50

Example results:
| molecule | GI50 |
| --- | --- |
| Cc1ccccc1NC(=O)N/C(N)=N/c1nc(-c2cccc([N+](=O)[O-])c2)cs1 | 2.39 µM |
| COC(=O)c1cc2c(cc1Cl)SC(N(N(C)C)S(=O)(=O)c1ccc(Br)s1)=NS2(=O)=O | 28.8 µM |
| CC12OC(c3ccccc3)=CC(c3ccc(Cl)cc3)=C1C(c1ccccc1)=CC2=O (stereo unspecified) | > 100 µM |

I would be grateful if you could provide GI50 for each of the following entries.
1. COc1cc(OC)c(/C=C/S(=O)(=O)Cc2cnc(OC)c(N)c2)c(OC)c1
2. ClCc1cccc(Cn2cnc3c(NC45CC6CC(CC(C6)C4)C5)ncnc32)c1
3. CN[C@@H](C)C(=O)N[C@H](C(=O)N1CCC[C@H]1C(=O)N[C@H]1c2ccccc2C[C@H]1OCC#CC#CCO[C@@H]1Cc2ccccc2[C@@H]1NC(=O)[C@@H]1CCCN1C(=O)[C@@H](NC(=O)[C@H](C)NC)C1CCCCC1)C1CCCCC1

< 0.01 µM
15.4 µM
8.8 µM

* * *

Test system: SF-268 CNS
Experiment: NCI tumour cell line growth inhibition, 48 h
quantityKind: TGI

Example results:
| compound | TGI |
| --- | --- |
| C=C1C(=O)C23CC1C[C@H](OC(C)=O)[C@H]2C1(C)C(OC(C)=O)C[C@H](O)C(C)(C)[C@H]1C(=O)[C@@H]3OC(C)=O (stereo partly specified) | 25.3 µM |
| Cn1c([N+](=O)[O-])cnc1/C=C1\Oc2ccccc2C1=O | 1.66 µM |
| CC(C)(C#N)c1cc(Cn2cncn2)cc(C(C)(C)C#N)c1 | > 10000 µM |

I would be grateful if you could provide TGI for each of the following entries.
1. CN(C)C=Nc1cccc2nsnc12
2. CC(=O)CC(=O)Nc1ccc2ccccc2c1

1. > 100 µM
2. > 100 µM

Name the reported TGI value associated with the compound `O=C(Nc1cccc2ccccc12)Nn1cnnc1`
> 100 µM

* * *

Test system: CAKI-1 renal
Assay: NCI tumour cell line growth inhibition, 48 h
quantityKind: TGI

Example results:
| compound | endpointValue |
| --- | --- |
| O=S(=O)(NC1=NCCN1C(=S)SN1CCn2c1nsc2=S)c1ccc(Br)cc1 | > 100 µM |
| COc1cc(OCc2nc3ccccc3n3cccc23)cc(OC)c1OC | > 100 µM |

I would be grateful if you could provide TGI for each of the following entries.
1. COc1ccc2c(c1)/C(=C\c1c(C)nc3n1CCS3)C(=O)N2
2. CCOC(=O)Nc1nc2ccc(Cn3cccc3)cc2[nH]1
3. O=[N+]([O-])c1cccc(C2N3CCCCC3[C@@H]3c4[nH]c5ccccc5c4CCN23)c1 (stereo not given in full)

1: > 100 µM; 2: > 100 µM; 3: > 100 µM
